# credit: paper PMC7802075

# system: LmjIPCS (inositol phosphorylceramide synthase from L. major) (Leishmania major, UniProt E9AFX2)
# Sequence (E9AFX2 whole entry): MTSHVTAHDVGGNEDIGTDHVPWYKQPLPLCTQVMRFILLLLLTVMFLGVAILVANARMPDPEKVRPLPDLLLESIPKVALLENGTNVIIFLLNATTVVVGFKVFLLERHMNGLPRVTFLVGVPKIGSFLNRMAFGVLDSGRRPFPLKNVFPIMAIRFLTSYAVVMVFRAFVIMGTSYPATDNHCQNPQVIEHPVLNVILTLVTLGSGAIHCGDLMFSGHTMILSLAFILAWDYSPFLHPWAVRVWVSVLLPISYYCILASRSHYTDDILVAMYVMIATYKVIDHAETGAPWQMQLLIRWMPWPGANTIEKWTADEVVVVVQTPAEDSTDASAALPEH
# runDescription: biochemical
# Type: biochemical
quantityName: 20mM inhibition LmjIPCS (%)
Kindly answer with a numeric value in %, unit omitted.

Solved cases below.
compound | recordedMeasurement
CCOC(=O)C1=C(O)C(=O)N(Cc2ccccc2)C1 | -1.71
N[C@@H](Cc1c[nH]c2ccccc12)C(=O)O | 34
CC(C[N+](C)(C)C)OC(N)=O (stereo not shown) | 53
COc1ccccc1N1CCNCC1 | 30
O=C(CC(=O)c1ccccc1)c1ccccc1 | 44
CCC1(CC)C(=O)C=CNC1=O | 52

20mM inhibition LmjIPCS reported for this compound `COC(=O)[C@]1(C)CC[C@]2(C)CC[C@]3(C)C4=CC=C5C(=CC(=O)C(O)=C5C)[C@]4(C)CC[C@@]3(C)[C@@H]2C1` : 62
